Each record here notes measured IC50 (read off the curve).
# measured_on: T1, membrane-bound full-length human CD89 on HEK293F cells (human, UniProt P24071 22-287)
# T1 construct: 2 or transient transfectants; also called membrane human CD89; human FcaRI
# test_summary: FACS, antibody before secretory IgA on HEK293F-huCD89; IgA detected

As a guide, the following entries are already answered.
binder	IC50 (read off the curve)
CD89/IgA blocking mouse anti-human CD89-specific antibody 10E7 (antibody, V domains shown, biotinylated in the Octet assay; also called mouse 10E7) VH: EVQLVESGGGLVQPGGSLKLSCAASGLTFSSYGMSWVRQTPDKRLELVATINGNGDITYYPDSVKGRFTISRDNAKNTLYLQMSSLKSEDTAMYYCARDYDYDYAMDYWGQGTSVTVSS VL: DIQMTQSTSSLSASLGDSVTISCRASQDIINYLNWYQQKPDGTVKLLIYYTSRLHSGVPSRFSGSGSGTEYSLTVSNLEKEDIATYFCQQGKTLPYTFGGGTKLEIK	~1 µg/mL
CD89/IgA blocking mouse anti-human CD89-specific antibody 8F3 (antibody, V domains shown, also called mouse 8F3) VH: EVQLVESGGGLVKPGGSLKLSCAASGFTFSNYGMSWVRQTPDKRLEWVATMHSGGTYTYYPDNVKGRFTISRDNAKNNLYLQMSSLRSEDTAMYYCARETGLYDGLFDFWGQGTTLTVSS VL: DVQITQSPSYLAASPGETITINCRASKTISKYLAWYQEKPGKTNMLLIYSGSTLQSGVPSRFSGSGSGTDFTLTISSLEPEDLAMYYCQQHDEYPWTFGGGTKLEIK	~0.8 µg/mL

[Q] Fill in the blank: the reported IC50 (read off the curve) of CD89/IgA blocking mouse anti-human CD89-specific antibody 30C7 (antibody, V domains shown) VH: QVQLQQSGPELVRPGVSVKISCKGSGYTFTDYVMHWVKQSHAKSLEWIGVISTYSGNTNYNQKFKGKATMTVDKSSSTAYMELARLTSEDSAIYYCARESDGYYFDYWGQGTTLTVSS VL: DIVMSQSPSSLAVSAGEKVTMSCKSSQSLLNSRTRKNYLAWYQQKPGQSPKLLIYWASTRESGVPDRFTGSGSGTDFTLTISSVQAEDLAVYYCKQSYNLMYTFGGGTKLEIK is ____.
[A] ~1 µg/mL

Origin of measurements: patent US20230242646A1
